experiment: qHTS assay to identify small molecule antagonists of the progesterone receptor (PR) signaling pathway - cell viability counter screen (AID 1346798); details: PR-UAS-bla HEK293T viability, CellTiter-Glo luminescence, 16 h; series mostly up to 92.4 µM; further: nearly all actives have a fitted effect of over 50% in size
Inconclusive results are not listed. The source made the active and inactive calls. The call rests on the fitted dose curve; in most records, active means well fitted cell-killing curve with a large enough effect in the repeat runs; inconclusive means weak or mixed curves, or effect the other way; inactive means no such curve, though single readings can be large or run the other way.
Answer with one of the outcomes active, inactive

| compound | assigned-class |
| --- | --- |
| CCOC(=O)CC(=O)c1cc(F)c(Cl)nc1Cl | inactive |
| Cc1cccc(Oc2ccccc2)c1 | active |
| O=[N+]([O-])c1cc[n+]([O-])cc1 | inactive |
| CC[C@]12CCCN3CCc4c(n(c5ccccc45)C(=O)C1)[C@@H]32 | inactive |
| CC(=O)N(CC(=O)N(C)C)c1ccccc1 | inactive |

Enquiry: Hi, sorry to bother you, what did the test record for CC(C)(Oc1ccc(Cl)cc1)C(=O)OCCCOC(=O)C(C)(C)Oc1ccc(Cl)cc1 ?
Return: inactive

Enquiry: Hi, sorry to bother you, what did the test record for CC(Cc1cccc(C(F)(F)F)c1)NCCOC(=O)c1ccccc1 (centres undefined) ?
Return: inactive

// data source = PubChem BioAssay (Tox21)
